SYSTEM UNDER TEST: human recombinant mGluR5 (Homo sapiens, UniProt P41594)
Sequence (P41594 21-1212): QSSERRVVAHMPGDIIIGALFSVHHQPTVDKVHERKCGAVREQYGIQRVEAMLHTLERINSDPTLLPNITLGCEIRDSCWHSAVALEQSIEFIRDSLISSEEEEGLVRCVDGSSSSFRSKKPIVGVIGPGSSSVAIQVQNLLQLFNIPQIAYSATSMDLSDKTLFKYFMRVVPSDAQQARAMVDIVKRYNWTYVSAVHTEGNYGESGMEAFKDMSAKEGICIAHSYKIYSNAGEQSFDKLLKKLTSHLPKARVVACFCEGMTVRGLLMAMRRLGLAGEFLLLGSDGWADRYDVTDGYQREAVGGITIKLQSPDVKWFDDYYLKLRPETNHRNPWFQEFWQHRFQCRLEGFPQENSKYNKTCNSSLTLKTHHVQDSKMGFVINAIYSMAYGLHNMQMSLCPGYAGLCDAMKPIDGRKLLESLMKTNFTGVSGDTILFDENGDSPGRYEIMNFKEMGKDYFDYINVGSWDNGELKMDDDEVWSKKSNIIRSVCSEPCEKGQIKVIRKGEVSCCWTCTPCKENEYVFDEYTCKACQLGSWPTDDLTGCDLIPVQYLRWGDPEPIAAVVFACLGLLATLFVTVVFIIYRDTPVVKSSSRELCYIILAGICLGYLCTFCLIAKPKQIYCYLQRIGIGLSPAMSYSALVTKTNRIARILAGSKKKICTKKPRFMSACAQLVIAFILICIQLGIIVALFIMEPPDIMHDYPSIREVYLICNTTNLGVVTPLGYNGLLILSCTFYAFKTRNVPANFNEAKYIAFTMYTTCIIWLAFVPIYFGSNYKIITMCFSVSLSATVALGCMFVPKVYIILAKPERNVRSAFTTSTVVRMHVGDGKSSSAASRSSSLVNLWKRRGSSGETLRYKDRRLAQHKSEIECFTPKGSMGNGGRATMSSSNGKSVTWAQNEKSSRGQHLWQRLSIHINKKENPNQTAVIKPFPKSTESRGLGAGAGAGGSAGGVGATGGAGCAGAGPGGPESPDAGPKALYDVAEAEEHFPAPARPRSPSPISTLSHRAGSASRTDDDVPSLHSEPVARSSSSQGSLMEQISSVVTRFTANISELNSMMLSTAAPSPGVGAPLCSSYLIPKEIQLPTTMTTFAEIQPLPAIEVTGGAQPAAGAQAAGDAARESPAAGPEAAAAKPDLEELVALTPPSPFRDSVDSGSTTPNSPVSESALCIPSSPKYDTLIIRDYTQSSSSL
METHOD SUMMARY: positive modulation of mGluR5, calcium based FLIPR assay
MEASUREMENT CONTEXT: HEK 293 cell line expressing human recombinant mGluR5; EC50 of the modulation from peak Ca fluorescence signal after glutamate at approx. 5% basal stimulation
Known pEC50 of a selection of compounds
// field semantics: pEC50 = negative decimal log of concentration (mol/L)

Answered cases to consult:
**Q:** Given the entry CCc1cc(-c2cccc(C#N)c2)nn1CC(=O)N1CCc2nc(C)sc2CC1 [Example 7.02.184] , report its measured pEC50.
**A:** 6.88

**Q:** Here is the next compound: Cc1csc(N2CCN(C(=O)Cn3nc(-c4ccccc4)cc3-c3ccccc3)CC2)n1 [Example 7.01.003]
**A:** 5.75

**Q:** Moving on to COc1ccc(-c2cc(C(C)C)n(CC(=O)N3Cc4ccc(OC)cc4C3)n2)cc1 [Example 7.02.040]
**A:** 5.77

**Q:** Request: Cc1nc(N2CCN(C(=O)Cn3nc(-c4ccc(OC(F)F)cn4)cc3-c3ccccc3)CC2)no1 [Example 7.02.235]
**A:** 7.52

Others:
**Q:** Endpoint output: pEC50 of Cc1cnc(C2=CCN(C(=O)Cn3nc(-c4ccc(F)c(C)c4)cc3-c3ccccc3)CC2)nc1 [Example 7.02.102] . Value?
**A:** 7.57

**Q:** Follow-up entry: Cc1cc(-c2cc(-c3ccccc3)n(CC(=O)N3CCc4nc5ccccc5c(C)c4CC3)n2)ccc1F [Example 7.01.084]
**A:** 7.47

**Q:** Cool, now COc1cc(-c2cc(-c3ccccc3)n(CC(=O)N3CCc4nc(N)sc4CC3)n2)ccc1F [Example 7.02.149]
**A:** 7.38
